Biological target: NRAS G12C (Homo sapiens (Human), UniProt P01111+P62937, G12C)
Sequence (P01111 whole entry G12C, one chain of several): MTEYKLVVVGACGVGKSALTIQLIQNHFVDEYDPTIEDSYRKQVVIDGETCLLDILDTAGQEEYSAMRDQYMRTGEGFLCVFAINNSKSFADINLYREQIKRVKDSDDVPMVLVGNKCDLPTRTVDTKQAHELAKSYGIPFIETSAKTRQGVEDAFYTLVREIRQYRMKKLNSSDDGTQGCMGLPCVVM
Assay: Ras-Raf (BRAF RBD) disruption / FRET / MOA assay, NRAS G12C
Format: biochemical
Conditions: read-out: IC50* NRAS G12C FRET data
# maps each entry to its IC50

Recorded IC50, per entry:
Entry CCn1c(-c2cccnc2[C@H](C)OC)c2c3cc(ccc31)-c1csc(n1)C[C@H](NC(=O)[C@H](C(C)C)N(C)C(=O)N(C)C1CN(C(=O)/C=C/CN(C)C)C1)C(=O)N1CCC[C@H](N1)C(=O)OCC(C)(C)C2 (atropisomer, axis not shown) : reported IC50 = ?
10 to 100 nM

Entry C=CC(=O)N1CC2(CCCN2C(=O)N(C)[C@H](C(=O)N[C@H]2Cc3nc(cs3)-c3ccc4c(c3)c(c(-c3cccnc3[C@H](C)OC)n4CC)CC(C)(C)COC(=O)[C@@H]3CCCN(N3)C2=O)C(C)C)C1 (atropisomer, axis not shown) : reported IC50 = ?
< 10 nM

Entry C=CC(=O)N(C)CCN1CCN(C(=O)N(C)[C@H](C(=O)N[C@H]2Cc3cccc(c3)-c3ccc4c(c3)c(c(-c3cccnc3[C@H](C)OC)n4CC)CC(C)(C)COC(=O)[C@@H]3CCCN(N3)C2=O)C(C)C)C[C@@H]1C (atropisomer, axis not shown) : reported IC50 = ?
100 to 1000 nM

Entry C=CC(=O)N1CC[C@H](C(=O)N(C)[C@H](C(=O)N[C@H]2Cc3nc(cs3)-c3ccc4c(c3)c(c(-c3cccnc3[C@H](C)OC)n4CC)CC(C)(C)CCC[C@@H]3CCCN(N3)C2=O)C(C)C)C1 (atropisomer, axis not shown) : reported IC50 = ?
> 10000 nM

Entry C=CC(=O)N(C)C[C@@H]1CCN1C(=O)N(C)[C@H](C(=O)N[C@H]1Cc2nc(cs2)-c2ccc3c(c2)c(c(-c2cccnc2[C@H](C)OC)n3CC)CC(C)(C)COC(=O)[C@@H]2CCCN(N2)C1=O)C(C)C (atropisomer, axis not shown) : reported IC50 = ?
100 to 1000 nM

Entry CC#CC(=O)N1C[C@H](C)[C@H](C(=O)N(C)[C@H](C(=O)N[C@H]2Cc3cccc(c3)-c3ccc4c(c3)c(c(-c3cccnc3[C@H](C)OC)n4CC)CC(C)(C)COC(=O)[C@@H]3CCCN(N3)C2=O)C2CCCC2)C1 (atropisomer, axis not shown) : reported IC50 = ?
100 to 1000 nM

Entry CCn1c(-c2cccnc2[C@H](C)OC)c2c3cc(ccc31)-c1csc(n1)C[C@H](NC(=O)[C@H](C(C)C)N(C)C(=O)[C@H]1CCC(C(=O)/C=C/CN(C)C)C1)C(=O)N1CCC[C@H](N1)C(=O)OCC(C)(C)C2 (some centres unmarked) : reported IC50 = ?
100 to 1000 nM

Continue with the compound presented below.
Entry C=CC(=O)N1CC(OCC(C(=O)N[C@H]2Cc3cccc(c3)-c3ccc4c(c3)c(c(-c3cccnc3[C@H](C)OC)n4CC)CC(C)(C)COC(=O)[C@@H]3CCCN(N3)C2=O)C(C)C)C1 (mixture of isomers) [Example A484] : reported IC50 = ?
1000 to 10000 nM

---

Molecular target: KRAS WT (Homo sapiens (Human), UniProt P01116+P62937)
Sequence (P01116-2 other isoform, or with tags, fused parts or gaps): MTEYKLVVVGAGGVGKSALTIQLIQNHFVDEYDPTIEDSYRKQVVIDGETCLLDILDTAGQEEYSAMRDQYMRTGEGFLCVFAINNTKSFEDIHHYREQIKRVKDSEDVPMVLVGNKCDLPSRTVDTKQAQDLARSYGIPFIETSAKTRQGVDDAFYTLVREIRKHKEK
Sequence (P62937 whole entry): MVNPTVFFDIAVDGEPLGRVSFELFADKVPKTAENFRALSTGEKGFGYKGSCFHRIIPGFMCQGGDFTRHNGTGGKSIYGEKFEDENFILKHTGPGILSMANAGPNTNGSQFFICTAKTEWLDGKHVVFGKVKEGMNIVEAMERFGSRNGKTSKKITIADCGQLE
Experiment: Ras-Raf (BRAF RBD) disruption / FRET / MOA assay, KRAS WT
Format: biochemical
Conditions: read-out: IC50* KRAS WT FRET data
# maps each entry to its IC50

Recorded IC50, per entry:
Entry "CCn1c(-c2cccnc2COC)c2c3cc(ccc31)-c1cc(O)cc(c1)C[C@H](NC(=O)[C@H](C(C)C)N(C)C(=O)[C@H]1CCN(C(=O)/C=C/CN(C)C)C1)C(=O)N1CCC[C@H](N1)C(=O)OCC(C)(C)C2" : reported IC50 = ?
100 to 1000 nM

Entry C=CC(=O)N1CC2(C1)OCN([C@H](C(=O)N[C@H]1Cc3cccc(c3)-c3ccc4c(c3)c(c(-c3cccnc3[C@H](C)OC)n4CC)CC(C)(C)COC(=O)[C@@H]3CCCN(N3)C1=O)C(C)C)C2=O (atropisomer, axis not shown) : reported IC50 = ?
100 to 1000 nM

Entry CCn1c(-c2cccnc2[C@H](C)OC)c2c3cc(ccc31)-c1csc(n1)C[C@H](NC(=O)[C@@H](COC1CN(C(=O)C#CC(C)(C)N(C)C)C1)OC)C(=O)N1CCC[C@H](N1)C(=O)OCC(C)(C)C2 (atropisomer, axis not shown) : reported IC50 = ?
100 to 1000 nM

Entry C=CC(=O)N1CC[C@H](C(=O)N(C)[C@H](C(=O)N[C@H]2Cc3cccc(c3)-c3ccc4c(c3)c(c(-c3cc(C5CN(C)C5)cnc3[C@H](C)OC)n4CC)CC(C)(C)COC(=O)[C@@H]3CCCN(N3)C2=O)C(C)C)C1 (atropisomer, axis not shown) : reported IC50 = ?
1000 to 10000 nM

Entry C=CC(=O)N1C[C@@H](F)[C@](F)(C(=O)N(C)[C@H](C(=O)N[C@H]2Cc3cccc(c3)-c3ccc4c(c3)c(c(-c3cccnc3[C@H](C)OC)n4CC)CC(C)(C)COC(=O)[C@@H]3CCCN(N3)C2=O)C(C)C)C1 (atropisomer, axis not shown) : reported IC50 = ?
1000 to 10000 nM

Entry "C=CC(=O)N1CC[C@H](C(=O)N(C)[C@H](C(=O)N[C@H]2CC3=NN=C(S3)c3ccc4c(c3)c(c(-c3cccnc3COC)n4CC)CC(C)(C)COC(=O)[C@@H]3CCCN(N3)C2=O)C(C)C)C1" : reported IC50 = ?
> 10000 nM

Entry C=CC(=O)N1CCO[C@@H]2CN(C(=O)N(C)[C@H](C(=O)N[C@H]3Cc4nc(cs4)-c4ccc5c(c4)c(c(-c4cccnc4[C@H](C)OC)n5CC)CC(C)(C)COC(=O)[C@@H]4CCCN(N4)C3=O)C(C)C)C[C@H]21 (atropisomer, axis not shown) : reported IC50 = ?
100 to 1000 nM

---
Entry CCn1c(-c2cccnc2[C@H](C)OC)c2c3cc(ccc31)-c1cccc(c1)C[C@H](NC(=O)[C@H](C(C)C)N(C)C(=O)C1(F)CCN(C(=O)/C=C/CN(C)C)CC1)C(=O)N1CCC[C@H](N1)C(=O)OCC(C)(C)C2 (atropisomer, axis not shown) : reported IC50 = ?
100 to 1000 nM

---

Target: KRAS G12V (Homo sapiens (Human), UniProt P01116+P62937, G12V)
Sequence (P01116-2 other isoform, or with tags, fused parts or gaps G12V, one chain of several): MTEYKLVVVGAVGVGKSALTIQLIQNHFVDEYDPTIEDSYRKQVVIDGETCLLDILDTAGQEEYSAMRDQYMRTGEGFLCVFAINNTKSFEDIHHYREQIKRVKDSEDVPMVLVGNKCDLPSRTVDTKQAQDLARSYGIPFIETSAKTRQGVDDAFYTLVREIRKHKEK
Assay: Ras-Raf (BRAF RBD) disruption / FRET / MOA assay, KRAS G12V
Type: biochemical
Settings: read-out: IC50* KRAS G12V FRET data
assay-metric: IC50

Recorded IC50, per entry:
Entry C=CC(=O)N1CC[C@H](C(=O)N(C)[C@H](C(=O)N[C@H]2Cc3cc(OC4O[C@H](CO)[C@@H](O)[C@H](O)[C@H]4O)cc(c3)-c3ccc4c(c3)c(c(-c3cccnc3COC)n4CC)CC(C)(C)COC(=O)[C@@H]3CCCN(N3)C2=O)C(C)C)C1 (some centres unmarked) : reported IC50 = ?
> 10000 nM

Entry "C=CC(=O)N1CC[C@H](C(=O)N(C)[C@H](C(=O)N[C@H]2Cc3cc(O)cc(c3)-c3ccc4c(c3)c(c(-c3cnccc3[C@@H](OC)C3CC3)n4CC)CC(C)(C)COC(=O)[C@@H]3CCCN(N3)C2=O)C(C)C)C1" : reported IC50 = ?
> 10000 nM

Entry CCn1c(-c2cccnc2[C@H](C)OC)c2c3cc(ccc31)-c1cccc(c1)C[C@H](NC(=O)[C@H](C(C)C)N(C)C(=O)C1(F)CCN(C(=O)/C=C/CN(C)C)CC1)C(=O)N1CCC[C@H](N1)C(=O)OCC(C)(C)C2 (atropisomer, axis not shown) : reported IC50 = ?
100 to 1000 nM

Entry "C=CC(=O)N1CC[C@H](C(=O)Nc2ccccc2C(=O)N[C@H]2Cc3cc(O)cc(c3)-c3ccc4c(c3)c(c(-c3cnccc3COC)n4CC)CC(C)(C)COC(=O)[C@@H]3CCCN(N3)C2=O)C1" : reported IC50 = ?
> 10000 nM

Entry C=CC(=O)Nc1ccc(C(=O)N(C)[C@H](C(=O)N[C@H]2Cc3cc(O)cc(c3)-c3ccc4c(c3)c(c(-c3cccnc3[C@H](C)OC)n4CC)CC(C)(C)COC(=O)[C@@H]3CCCN(N3)C2=O)C(C)C)nc1 (atropisomer, axis not shown) : reported IC50 = ?
100 to 1000 nM

---
Entry CCn1c(-c2cccnc2[C@H](C)OC)c2c3cc(ccc31)-c1cccc(c1)C[C@H](NC(=O)[C@H](C(C)C)N1CC[C@]3(CCN(C(=O)C#C[C@H]4COCCN4C)C3)C1=O)C(=O)N1CCC[C@H](N1)C(=O)OCC(C)(C)C2 (atropisomer, axis not shown) : reported IC50 = ?
1000 to 10000 nM

Entry C=CC(=O)N1CC[C@H](C(=O)N(C)[C@H](C(=O)N[C@H]2Cc3nc(cs3)-c3ccc4c(c3)c(c(-c3cccnc3[C@H](C)OC)n4CC)CC(C)(C)C/C=C/[C@@H]3CCCN(N3)C2=O)C(C)C)C1 (atropisomer, axis not shown) : reported IC50 = ?
> 10000 nM

Entry CO[C@@H](C)c1ncccc1-c1c2c3cc(ccc3n1CC(F)(F)F)-c1csc(n1)C[C@H](NC(=O)[C@H](C(C)C)N(C)C(=O)N1CCN(C(=O)/C=C/CN(C)C)C3(CC3)C1)C(=O)N1CCC[C@H](N1)C(=O)OCC(C)(C)C2 (atropisomer, axis not shown) : reported IC50 = ?
100 to 1000 nM

These entries and their values trace back to patent US11566007B2.
